The measured values listed here are drawn from paper PMC3384344.

# ASSAY_TARGET: DNA polymerase III α subunit, wild-type full-length (E. coli, UniProt P10443 1-1160)
# Sequence (P10443 whole entry): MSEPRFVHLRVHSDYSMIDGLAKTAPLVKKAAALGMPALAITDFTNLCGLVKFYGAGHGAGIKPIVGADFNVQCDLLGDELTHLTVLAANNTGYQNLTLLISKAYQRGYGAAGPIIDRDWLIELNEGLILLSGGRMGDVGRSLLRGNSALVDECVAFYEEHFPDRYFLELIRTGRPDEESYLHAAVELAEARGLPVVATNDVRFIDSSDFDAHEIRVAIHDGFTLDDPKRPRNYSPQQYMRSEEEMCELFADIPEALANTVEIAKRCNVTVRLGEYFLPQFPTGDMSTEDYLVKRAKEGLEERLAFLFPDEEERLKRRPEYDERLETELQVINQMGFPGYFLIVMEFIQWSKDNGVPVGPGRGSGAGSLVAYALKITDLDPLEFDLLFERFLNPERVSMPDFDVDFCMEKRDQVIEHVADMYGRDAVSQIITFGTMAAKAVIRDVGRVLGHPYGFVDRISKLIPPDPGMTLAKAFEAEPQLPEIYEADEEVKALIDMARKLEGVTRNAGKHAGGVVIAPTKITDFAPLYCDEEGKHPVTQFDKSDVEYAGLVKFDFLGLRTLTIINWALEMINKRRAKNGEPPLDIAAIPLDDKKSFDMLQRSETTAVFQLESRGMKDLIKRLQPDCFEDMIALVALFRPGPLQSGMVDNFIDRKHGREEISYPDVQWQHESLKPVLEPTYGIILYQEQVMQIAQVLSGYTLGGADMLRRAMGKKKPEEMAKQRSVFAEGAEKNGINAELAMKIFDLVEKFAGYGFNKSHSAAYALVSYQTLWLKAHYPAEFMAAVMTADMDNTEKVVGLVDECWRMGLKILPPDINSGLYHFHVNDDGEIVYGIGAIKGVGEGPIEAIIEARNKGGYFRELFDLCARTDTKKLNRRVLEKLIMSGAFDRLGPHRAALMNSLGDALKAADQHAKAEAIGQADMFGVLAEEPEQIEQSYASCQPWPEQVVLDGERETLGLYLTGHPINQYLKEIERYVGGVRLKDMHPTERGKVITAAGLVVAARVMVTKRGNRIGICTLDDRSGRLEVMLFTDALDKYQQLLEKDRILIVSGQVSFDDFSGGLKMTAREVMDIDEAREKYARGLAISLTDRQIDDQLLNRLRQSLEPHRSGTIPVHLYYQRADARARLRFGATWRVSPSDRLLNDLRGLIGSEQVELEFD
# ASSAY_COMMENT: other fluorescence titration
In this section we review reported Kd values for a set of binders.
READOUT_NAME: Kd (µM)

[[record]]
binder = "UmuD3A (UmuD containing the triple mutation T14A, L17A and F18A) (natural protein) MLFIKPADLREIVAFPAASDLVQCGFPSPAADYVEQRIDLNQLLIQHPSATYFVKASGDSMIDGGISDGDLLIVDSAITASHGDIVIAAVDGEFTVKKLQLRPTVQLIPMNSAYSPITISSEDTLDVFGVVIHVVKAMR"
readout_name = "Kd"
numeric_readout = 8.7

[[record]]
binder = "UmuD, wild-type full-length (homodimer UmuD2) (natural protein) MLFIKPADLREIVTFPLFSDLVQCGFPSPAADYVEQRIDLNQLLIQHPSATYFVKASGDSMIDGGISDGDLLIVDSAITASHGDIVIAAVDGEFTVKKLQLRPTVQLIPMNSAYSPITISSEDTLDVFGVVIHVVKAMR"
readout_name = "Kd"
numeric_readout = 1.1

[[record]]
binder = "UmuD′, cleaved form of UmuD (homodimer UmuD′2) (natural protein) GFPSPAADYVEQRIDLNQLLIQHPSATYFVKASGDSMIDGGISDGDLLIVDSAITASHGDIVIAAVDGEFTVKKLQLRPTVQLIPMNSAYSPITISSEDTLDVFGVVIHVVKAMR"
readout_name = "Kd"
numeric_readout = 10.9

[[record]]
binder = "UmuD-S60A, non-cleavable full-length UmuD variant (natural protein) MLFIKPADLREIVTFPLFSDLVQCGFPSPAADYVEQRIDLNQLLIQHPSATYFVKASGDAMIDGGISDGDLLIVDSAITASHGDIVIAAVDGEFTVKKLQLRPTVQLIPMNSAYSPITISSEDTLDVFGVVIHVVKAMR"
readout_name = "Kd"
numeric_readout = 10.6

